- ASSAYED_SYSTEM: P110 δ/Pi3K δ (Homo sapiens, UniProt O00329)
- Sequence (O00329 whole entry, canonical isoform): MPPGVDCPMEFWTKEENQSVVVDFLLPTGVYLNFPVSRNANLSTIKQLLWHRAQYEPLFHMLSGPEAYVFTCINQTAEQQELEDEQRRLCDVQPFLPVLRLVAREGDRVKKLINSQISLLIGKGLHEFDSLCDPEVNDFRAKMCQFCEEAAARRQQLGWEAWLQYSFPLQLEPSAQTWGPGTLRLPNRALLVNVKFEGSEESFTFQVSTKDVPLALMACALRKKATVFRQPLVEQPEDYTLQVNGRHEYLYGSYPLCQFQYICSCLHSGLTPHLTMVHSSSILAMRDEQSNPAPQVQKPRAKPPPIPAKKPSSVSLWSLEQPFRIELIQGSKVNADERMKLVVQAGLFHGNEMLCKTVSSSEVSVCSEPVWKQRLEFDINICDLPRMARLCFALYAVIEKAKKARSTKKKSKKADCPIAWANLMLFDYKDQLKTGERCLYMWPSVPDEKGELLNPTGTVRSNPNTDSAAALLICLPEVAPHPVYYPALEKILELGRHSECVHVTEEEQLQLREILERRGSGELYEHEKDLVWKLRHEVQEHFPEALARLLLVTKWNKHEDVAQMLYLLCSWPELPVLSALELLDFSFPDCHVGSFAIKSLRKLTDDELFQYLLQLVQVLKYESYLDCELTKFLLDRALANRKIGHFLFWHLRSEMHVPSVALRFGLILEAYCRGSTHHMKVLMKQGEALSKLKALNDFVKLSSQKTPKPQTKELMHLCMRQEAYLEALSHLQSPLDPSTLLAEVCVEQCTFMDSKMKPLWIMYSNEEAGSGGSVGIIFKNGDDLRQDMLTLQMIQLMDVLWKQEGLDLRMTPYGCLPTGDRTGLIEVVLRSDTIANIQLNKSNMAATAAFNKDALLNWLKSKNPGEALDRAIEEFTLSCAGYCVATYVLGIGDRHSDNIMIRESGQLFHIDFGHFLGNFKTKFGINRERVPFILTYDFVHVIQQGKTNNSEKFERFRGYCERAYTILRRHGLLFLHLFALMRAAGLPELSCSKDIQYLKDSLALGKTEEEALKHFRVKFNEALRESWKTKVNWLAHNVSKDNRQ
- Sequence (P27986 whole entry partner, canonical isoform): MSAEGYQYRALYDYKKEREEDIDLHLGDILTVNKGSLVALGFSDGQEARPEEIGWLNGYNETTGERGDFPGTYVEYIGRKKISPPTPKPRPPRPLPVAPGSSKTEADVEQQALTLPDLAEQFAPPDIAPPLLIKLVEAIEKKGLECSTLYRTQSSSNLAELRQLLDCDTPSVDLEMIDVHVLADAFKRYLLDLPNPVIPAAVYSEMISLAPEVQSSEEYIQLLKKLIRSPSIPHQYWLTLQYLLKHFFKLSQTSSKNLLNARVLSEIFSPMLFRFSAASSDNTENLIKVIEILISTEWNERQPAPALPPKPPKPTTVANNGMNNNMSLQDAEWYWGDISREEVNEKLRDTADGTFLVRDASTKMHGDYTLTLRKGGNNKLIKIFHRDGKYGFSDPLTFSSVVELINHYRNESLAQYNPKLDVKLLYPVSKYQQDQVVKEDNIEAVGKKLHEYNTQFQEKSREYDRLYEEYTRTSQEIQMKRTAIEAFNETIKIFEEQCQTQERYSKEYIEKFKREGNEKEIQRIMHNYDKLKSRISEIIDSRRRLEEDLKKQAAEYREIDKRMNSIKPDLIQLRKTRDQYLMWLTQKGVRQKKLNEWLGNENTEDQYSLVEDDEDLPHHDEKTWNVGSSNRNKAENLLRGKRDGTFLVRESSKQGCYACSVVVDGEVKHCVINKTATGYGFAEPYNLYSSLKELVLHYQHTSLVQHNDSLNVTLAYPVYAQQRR
- TEST_PROTOCOL: Fluorescent (HTRF) determination of PI3K enzyme activity, δ isoform
- Assay type: biochemical
- Set-up: dose or concentration left out as unconfirmed
MEASURED_PROPERTY: inhibition

• COc1ccc(-c2nn(C(C)c3oc4ccccc4c(=O)c3-c3cccc(F)c3)c3ncnc(N)c23)cc1Cl (stereo not drawn) = < 50%
• Cc1n[nH]c2cc(-c3nn(C(C)c4oc5ccccc5c(=O)c4-c4ccccc4)c4ncnc(N)c34)ccc12 (stereo not drawn) = 50 to 100%
• Cc1n[nH]c2cc(-c3nn(Cc4oc5ccc(F)cc5c(=O)c4-c4ccccc4)c4ncnc(N)c34)ccc12 = 50 to 100%
• Cc1cc(-c2nn(C(C)c3oc4ccccc4c(=O)c3-c3cccc(F)c3)c3ncnc(N)c23)ccn1 (stereo not drawn) = < 50%

// inhibition lookup, compound = CC(c1oc2ccccc2c(=O)c1-c1cccc(F)c1)n1nc(-c2ccc(Cl)c(O)c2)c2c(N)ncnc21 (stereo not drawn) [Example 95a] , result: 50 to 100%

inhibition for C[C@@H](Nc1ncnc2[nH]cnc12)c1oc2ccc(F)cc2c(=O)c1-c1cccc(F)c1 is < 50%

So for CC(c1oc2ccccc2c(=O)c1-c1cccc(F)c1)n1nc(-c2ccccc2CO)c2c(N)ncnc21 (stereo not drawn) , the logged inhibition turned out to be < 50%

So for CC(c1oc2ccccc2c(=O)c1-c1cccc(F)c1)n1nc(-c2cccc(C(=O)NC3CC3)c2)c2c(N)ncnc21 (stereo not drawn) , the logged inhibition turned out to be < 50%

Looking up CC(c1oc2ccccc2c(=O)c1-c1cccc(F)c1)n1ncc2c(Cl)ccnc21 (stereo not drawn) , I found its inhibition recorded as < 50%

# compound CCc1n[nH]c2cc(-c3nn(C(C)c4oc5ccccc5c(=O)c4-c4cccc(F)c4)c4ncnc(N)c34)ccc12 (stereo not drawn) ; its inhibition = 50 to 100%

response.value for CC(C)Oc1ccc(F)c(-c2nn(C(C)c3oc4ccccc4c(=O)c3-c3cccc(F)c3)c3ncnc(N)c23)c1 (stereo not drawn) (field: inhibition) = < 50%

Entry under test: CC(=O)c1ccc(-c2nn(C(C)c3oc4ccccc4c(=O)c3-c3cccc(F)c3)c3ncnc(N)c23)cc1 (stereo not drawn) . Its inhibition was 50 to 100%

Note to self: inhibition recorded for CC(c1oc2ccccc2c(=O)c1-c1cccc(F)c1)n1nc(-c2ccc(O)cc2)c2c(N)ncnc21 (stereo not drawn) [Example 88a] was 50 to 100%

According to the records, this compound O=c1c(-c2cccc(F)c2)c(CNc2ncnc3[nH]cnc23)oc2ccc(F)cc12 displays inhibition of < 50%

The reported value for CC(c1oc2ccccc2c(=O)c1-c1cccc(F)c1)n1nc(-c2cc3ccccc3s2)c2c(N)ncnc21 (stereo not drawn) in terms of inhibition is 50 to 100%

// inhibition value for CC(c1oc2ccccc2c(=O)c1-c1cccc(F)c1)n1nc(-c2cc(O)cc(Cl)c2)c2c(N)ncnc21 (stereo not drawn) [Example 86a] : 50 to 100%

Record CC(c1oc2ccccc2c(=O)c1-c1cccc(F)c1)n1nc(-c2ccc(N3CCOCC3)nc2)c2c(N)ncnc21 (stereo not drawn) . Reported inhibition: < 50%

Entry under test: CCCOc1cccc(-c2nn(C(C)c3oc4ccccc4c(=O)c3-c3cccc(F)c3)c3ncnc(N)c23)c1 (stereo not drawn) . Its inhibition was < 50%
